# measured on: N-methyl-D-aspartate (NMDA) receptors ([3H]-MK-801 binding)
# protocol notes: Displacement of [3H]-MK-801 binding, crude synaptosomal membrane fraction (P2) from rat cerebral cortex
# condition label: Table III; displacement of [3H]-MK-801, rat cerebral cortex membranes; read-out: Ki
Field: label. Allowed values: Satisfied (Ki < 4 µM) or Not satisfied (Ki >= 4 µM).

Answered cases to consult:
compound	assigned label
CCCN1C2(C)c3ccccc3C1(C)c1ccccc12 [L-633,170]	Satisfied
CN1C2(C)c3ccccc3C1(C)c1cc(C(F)(F)F)ccc12 [L-631,922]	Not satisfied

Qu. Report whether reported Ki is lower than 4 µM (strictly) for CCCCN1C2(C)c3ccccc3C1(C)c1ccccc12 [L-633,744]
Ans. Satisfied

Qu. Report whether reported Ki is lower than 4 µM (strictly) for CN1C2(C)c3ccccc3C1(C)c1cc(C#N)ccc12 [L-633,239]
Ans. Not satisfied

Qu. Report whether reported Ki is lower than 4 µM (strictly) for CN1C2c3ccccc3C1(C)c1ccccc12 [L-631,876]
Ans. Not satisfied

Qu. Report whether reported Ki is lower than 4 µM (strictly) for CN1C2(C)c3ccccc3C1(C)c1ccccc12 [L-627,891]
Ans. Satisfied
